Here, each record is paired with measured melting point data.

Solved entries:
{"columns": ["STRUCTURE_STRING", "melting point"],
 "data": [
  ["Nc1cc(C(F)(F)F)c(-c2cc(Br)c(N)cc2C(F)(F)F)cc1Br", "154 to 157 °C"],
  ["COC(=O)Cn1nnc(-c2ccc(C=Cc3ccc(-c4nc5ccccc5o4)cc3)cc2)c1C#N", "248 to 249 °C"],
  ["CCOC(=O)N1CCN(c2nnc(N)[nH]2)CC1", "196 to 198 °C"],
  ["N#CC(C#N)(Cc1ccc(Cl)cc1)C1CCCCC1", "108 °C"],
  ["CCOC(=O)c1c(Cn2cnc3ccccc32)nc2cc(OC)c(OC)cc2c1-c1ccc(OC)c(OC)c1", "99 to 100 °C"]
]}

Task: Output measured melting point for this item: CCc1cc(C(=O)c2ccccc2F)c(-n2c(C)nnc2CNC(=O)c2cc3ccccc3[nH]2)s1
Output: 255 to 256 °C

Task: Give the value of melting point reported for the following: CCOC(=O)c1cc2cc([N+](=O)[O-])cc(C)c2o1
Output: 125 to 126 °C

Task: Please report the measured melting point for CN(Cc1ccccc1)c1ccc(C(=O)c2ccccc2)cc1[N+](=O)[O-]
Output: 99.5 °C

Task: Assign melting point to the following record: CC(=O)Cc1ccc(OCc2ccc(Cl)cc2)cc1
Output: 76 to 80 °C

Task: Give melting point for CNC(=O)C(=NO)c1ccccc1CO
Output: 128 to 131 °C

Task: Return melting point (reported value) for this molecule: COc1cc(COc2nn(-c3ccccc3)cc2CO)ccc1OCc1nc(-c2ccco2)oc1C
Output: 127 to 128 °C

Task: State, in one line, measured melting point of COC(=O)c1ccc(C(=O)c2ccccc2)[nH]1
Output: 111 to 113 °C

###

QUANTITY_KIND: melting point

Task: Look up and state reported melting point for C=CCN(C=CC=C(C#N)C#N)CC=C
Output: 50 to 52 °C

Task: Return melting point for the following molecule: CCOC(=O)C1(C(=O)Nc2ccc(Br)cc2C)CCC1
Output: 61 to 64 °C

Task: Note down melting point recorded for O=C(NO)c1ccc(CNC(=O)c2[nH]c(-c3cccs3)cc2-c2ccc(F)cc2)nc1
Output: 151 to 152 °C

Task: Provide one value: measured melting point of CCCCN(Cc1ccc2c(Br)c(OCc3nnn[nH]3)ccc2c1)C(=O)c1c(C)oc2ccccc12
Output: 204 to 206 °C

Task: Indicate its recorded melting point; the molecule in question is COC1c2ccccc2C2C(=O)N(Cc3ccccc3)C(=O)C12 (stereo not given)
Output: 170 to 172 °C

Task: For the molecule COC(=O)C=Cc1cnc(Cl)cc1NCc1ccc(OC)c(Cl)c1 , give its measured melting point value.
Output: 170 to 171 °C

###

melting point by entry:

Some solved cases for reference:
{"columns": ["COMPOUND", "RECORDED_MEASUREMENT"],
 "data": [
  ["CC(C)Oc1c(F)c(F)cc2c(=O)c(C(=O)O)cn(-c3cc(N)c(F)cc3F)c12", "217 to 222 °C"],
  ["CN1CC=C(c2c[nH]c3ccc(NC(=N)c4cccs4)cc23)C(F)C1 (stereo unspecified)", "127 to 129 °C"],
  ["CC(C)(C)c1cc(CN)nn1-c1ccc(S(C)(=O)=O)cc1", "138 to 145 °C"],
  ["COc1cccc(C(=O)NCC2CCCCC2)c1NC(=O)N[C@@H](Cc1ccc(NC(=O)c2c(Cl)cccc2Cl)cc1)C(=O)O", "175 °C"],
  ["O=C(O)CCn1nc2ccc(S)nn2c1=O", "174 to 176 °C"]
]}

Task: Give a short answer stating reported melting point for CCCC(C(N)=O)n1cc(C)c(-c2ccccc2)n1 (stereo unspecified) .
Output: 116 to 118 °C

Task: Identify measured melting point corresponding to COc1cc(C(=O)O)ccc1OC(=O)c1ccc(OC)c(C23CC4CC(CC(C4)C2)C3)c1
Output: 282 to 284 °C

Task: Please give measured melting point of the following entry: CC(O)(c1nc2cc([N+](=O)[O-])ccc2s1)C(F)(F)F (stereo unspecified)
Output: 66 to 69 °C

Task: Consider the compound Cc1ccccc1-n1cc(-c2ccccc2)c(CC(=O)O)n1 and give its recorded melting point.
Output: 177 °C

Task: Name the recorded melting point of the item Cc1ccccc1CCOCC(=O)O in your answer.
Output: 47 to 48 °C

Task: Output measured melting point for this item: COc1ccc(CN(Cc2ccco2)S(=O)(=O)c2ccc(C(=O)O)cc2)cc1
Output: 151 to 152 °C
